Origin of the recorded values: patent US20250312491A1

Reported Human hepatocytes- Editing % 625, rep 1 values for the following molecules.
- Tested on: human TTR gene
- PROCEDURE_DETAILS: Base editing in primary human hepatocytes co-transfected with gRNA and ABE8.8 mRNA, NGS
- Type: cell-based
- CONDITION_DESCRIPTION: 625 ng/RNA/mL, rep 1, 3 days after transfection
Note: unit % is implicit; provide only the numeric part.

// query Human hepatocytes- Editing % 625, rep 1 value for entry GA457: guide RNA, human TTR, protospacer GCCATCCTGCCAAGAATGAG (SEQ ID NO: 24), gRNA SEQ ID NO: 11 (nucleic acid, chemistry not given here) guide: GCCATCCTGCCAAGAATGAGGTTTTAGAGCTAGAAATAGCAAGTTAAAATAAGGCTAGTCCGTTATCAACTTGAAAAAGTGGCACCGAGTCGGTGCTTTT
17.24

Tell me the measured Human hepatocytes- Editing % 625, rep 1 of GA460: guide RNA, human/cyno TTR, protospacer TATAGGAAAACCAGTGAGTC (SEQ ID NO: 26), gRNA SEQ ID NO: 14 (nucleic acid, chemistry not given here) guide: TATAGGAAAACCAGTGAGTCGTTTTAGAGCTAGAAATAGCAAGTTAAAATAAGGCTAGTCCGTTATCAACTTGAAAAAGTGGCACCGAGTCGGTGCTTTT , please.
23.77

// query Human hepatocytes- Editing % 625, rep 1 value for entry GA461: guide RNA, human/cyno TTR, protospacer TACTCACCTCTGCATGCTCA (SEQ ID NO: 27), gRNA SEQ ID NO: 15 (nucleic acid, chemistry not given here) guide: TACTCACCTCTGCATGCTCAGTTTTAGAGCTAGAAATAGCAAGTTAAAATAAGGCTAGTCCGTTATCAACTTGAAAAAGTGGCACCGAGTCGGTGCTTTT
21.81

For the molecule GA459: guide RNA, human TTR, protospacer GCAACTTACCCAGAGGCAAA (SEQ ID NO: 25), gRNA SEQ ID NO: 13 (nucleic acid, chemistry not given here) guide: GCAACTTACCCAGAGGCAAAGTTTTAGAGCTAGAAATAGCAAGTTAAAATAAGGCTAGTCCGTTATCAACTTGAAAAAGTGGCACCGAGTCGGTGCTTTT , what Human hepatocytes- Editing % 625, rep 1 is on record?
3.79
